Assay: Inhibition of NS5A in HuH7 cell infected HCV genotype 1b Con1 assessed as decrease in viral replication after 3 days by luciferase reporter gene assay
pEC50: −log10 of the molar value.
measurement_type: pEC50

given_smiles: COC(=O)N[C@H](C(=O)N1CCC[C@H]1c1nc2ccc([C@H]3CC[C@H](c4ccc5nc([C@@H]6CCCN6C(=O)[C@@H](NC(=O)OC)C(C)C)[nH]c5c4)N3c3cc(F)c(N4CCC(c5ccccc5)CC4)c(F)c3)cc2[nH]1)C(C)C
obs_value: 11.22
--
given_smiles: COC(=O)N[C@H](C(=O)N1CCC[C@H]1c1nc2ccc([C@H]3CC[C@H](c4ccc5nc([C@@H]6CCCN6C(=O)[C@@H](NC(=O)OC)C(C)C)[nH]c5c4)N3c3cc(F)c(N4CCC(c5ccc(F)cc5)CC4)c(F)c3)cc2[nH]1)C(C)C
obs_value: 11.10
--
given_smiles: COC(=O)N[C@H](C(=O)N1CCC[C@H]1c1nc2cc(F)c([C@H]3CC[C@H](c4cc5[nH]c([C@@H]6CCCN6C(=O)[C@@H](NC(=O)OC)C6CCOCC6)nc5cc4F)N3c3cc(F)c(N4CCC(c5ccccc5)CC4)c(F)c3)cc2[nH]1)C1CCOCC1
obs_value: 11.10
--
given_smiles: COC(=O)N[C@H](C(=O)N1CCC[C@H]1c1nc2cc(F)c([C@H]3CC[C@H](c4cc5[nH]c([C@@H]6CCCN6C(=O)[C@@H](NC(=O)OC)C(C)C)nc5cc4F)N3c3cc(F)c(N4CCC(c5ccccc5)CC4)c(F)c3)cc2[nH]1)C(C)C
obs_value: 11.22

Cited source for all entries: BindingDB's records for doi:10.1021/acs.jmedchem.8b00082
